# Tested on: SF-539
# METHOD: NCI tumour cell line growth inhibition, 48 h
The source made the active and inactive calls. No stated cut-off is given here; in the data, active = GI50 up to about 1.1 µM and inactive = higher.
VALUE_TYPE: GI50

Ask | Field request: GI50 | item: CCOC(=O)CC1(C(=O)OCC)c2[nH]c3ccccc3c2CCN1Cc1ccccc1 (stereo unspecified)
Reply | 19.9 µM (inactive)

Ask | What measured GI50 goes with N#CC(NNC(=O)Cc1ccccc1)c1ccc(O)cc1 (stereo unspecified) ?
Reply | > 100 µM (inactive)

Ask | Value lookup for GI50; key = CC(OC(=O)C(CC(=O)OC(C)(C)C)NC(=O)OC(C)(C)C)C(=O)OCc1ccccc1 (stereo unspecified)
Reply | > 100 µM (inactive)

Ask | Recorded GI50 for N#CC(c1ccccc1)N(CCCCCCN(C(=O)c1ccccc1)C(C#N)c1ccccc1)C(=O)c1ccccc1 (stereo unspecified) , please?
Reply | 41.5 µM (inactive)

Ask | Looking for the measured GI50 of CCOC(=O)C1=C(Cl)c2cccnc2C1=O , can you help?
Reply | 82.6 µM (inactive)

Ask | Which GI50 is reported for this molecule? O=C1OC(c2cccc(C(F)(F)F)c2)c2ccc3ccccc3c21 (stereo unspecified)
Reply | > 100 µM (inactive)

###

# Test system: SR
# METHOD: NCI tumour cell line growth inhibition, 48 h
Active and inactive are the calls of the source. No stated cut-off is given here; in the data, active = GI50 up to about 1.1 µM and inactive = higher.
Pick from active, inactive when you respond.

Ask | Dear all, I need the recorded test outcome for CN1CCC/C1=C1\C(=O)c2cccn2C1=O , thank you.
Reply | inactive

Ask | Field: outcome | Entry: CC(C)(C)OC(=O)NCC(c1c[nH]c2cc(Br)ccc12)c1c[nH]c2cc(Br)ccc12
Reply | inactive

Ask | Answer briefly: the call reported for C(/C=N/c1ccccc1)=C(/Nc1ccccc1)C12CC3CC(CC(C3)C1)C2 in this assay.
Reply | inactive

Ask | Name the outcome recorded for Oc1cc(C2OCCCO2)cc(O)c1O in the assay.
Reply | inactive

Ask | How did this test come out for O=[N+]([O-])c1ccc(/C=N/C2CCCCC2)cc1 ?
Reply | inactive

Ask | # lookup: test call for C=C[C@@]1(C)CC(=O)[C@]2(O)[C@@]3(C)[C@@H](OC(C)=O)CCC(C)(C)[C@@H]3[C@H](OC(C)=O)[C@H](OC(C)=O)[C@@]2(C)O1
Reply | inactive

Ask | # lookup: test call for C=CCn1c(=O)c(C)cn(/C(=C/C(=O)OCC)C(=O)OCC)c1=O
Reply | inactive

Ask | Please share the test call associated with COCCOC1=C(Cl)C(=O)c2c(O)ccc(O)c2C1=O .
Reply | active

###

# Tested on: KM12
# METHOD: NCI tumour cell line growth inhibition, 48 h
Activity calls are given as the source filed them. Cut-off read from the data, not from the text of the source: active = GI50 up to about 1.1 µM and inactive = higher.
VALUE_TYPE: GI50

Ask | Recorded GI50 for COC(=O)C1=C(C(=O)OC)C2OC1C1C2C2(C)C(C)=C(C)C1(C)[S+]2[O-] (centres undefined) , please?
Reply | 19 µM (inactive)

Ask | Look at this compound and give its reported GI50. BrC1=C(Br)C2(SCCS2)[C@H]2C[C@@H]1c1ccccc12
Reply | 11.6 µM (inactive)

Ask | Give its GI50 value. Item: CN(C)CCNC(=O)c1c(O)ccc2c1c1c(n2CCc2ccccc2)C(=O)c2ccccc2C1=O
Reply | 4.15 µM (inactive)

Ask | Report GI50 for COc1ccc(-c2onc(-c3c(C)cc(C)cc3C)c2C2=NCCCN2)cc1 please.
Reply | 46.3 µM (inactive)
